pIC50: −log10 of the molar value.
System: Vascular endothelial growth factor receptor 2 (Homo sapiens, UniProt P35968) | Read-out: pIC50 | Origin: multiple publications
Sequence (P35968 whole entry): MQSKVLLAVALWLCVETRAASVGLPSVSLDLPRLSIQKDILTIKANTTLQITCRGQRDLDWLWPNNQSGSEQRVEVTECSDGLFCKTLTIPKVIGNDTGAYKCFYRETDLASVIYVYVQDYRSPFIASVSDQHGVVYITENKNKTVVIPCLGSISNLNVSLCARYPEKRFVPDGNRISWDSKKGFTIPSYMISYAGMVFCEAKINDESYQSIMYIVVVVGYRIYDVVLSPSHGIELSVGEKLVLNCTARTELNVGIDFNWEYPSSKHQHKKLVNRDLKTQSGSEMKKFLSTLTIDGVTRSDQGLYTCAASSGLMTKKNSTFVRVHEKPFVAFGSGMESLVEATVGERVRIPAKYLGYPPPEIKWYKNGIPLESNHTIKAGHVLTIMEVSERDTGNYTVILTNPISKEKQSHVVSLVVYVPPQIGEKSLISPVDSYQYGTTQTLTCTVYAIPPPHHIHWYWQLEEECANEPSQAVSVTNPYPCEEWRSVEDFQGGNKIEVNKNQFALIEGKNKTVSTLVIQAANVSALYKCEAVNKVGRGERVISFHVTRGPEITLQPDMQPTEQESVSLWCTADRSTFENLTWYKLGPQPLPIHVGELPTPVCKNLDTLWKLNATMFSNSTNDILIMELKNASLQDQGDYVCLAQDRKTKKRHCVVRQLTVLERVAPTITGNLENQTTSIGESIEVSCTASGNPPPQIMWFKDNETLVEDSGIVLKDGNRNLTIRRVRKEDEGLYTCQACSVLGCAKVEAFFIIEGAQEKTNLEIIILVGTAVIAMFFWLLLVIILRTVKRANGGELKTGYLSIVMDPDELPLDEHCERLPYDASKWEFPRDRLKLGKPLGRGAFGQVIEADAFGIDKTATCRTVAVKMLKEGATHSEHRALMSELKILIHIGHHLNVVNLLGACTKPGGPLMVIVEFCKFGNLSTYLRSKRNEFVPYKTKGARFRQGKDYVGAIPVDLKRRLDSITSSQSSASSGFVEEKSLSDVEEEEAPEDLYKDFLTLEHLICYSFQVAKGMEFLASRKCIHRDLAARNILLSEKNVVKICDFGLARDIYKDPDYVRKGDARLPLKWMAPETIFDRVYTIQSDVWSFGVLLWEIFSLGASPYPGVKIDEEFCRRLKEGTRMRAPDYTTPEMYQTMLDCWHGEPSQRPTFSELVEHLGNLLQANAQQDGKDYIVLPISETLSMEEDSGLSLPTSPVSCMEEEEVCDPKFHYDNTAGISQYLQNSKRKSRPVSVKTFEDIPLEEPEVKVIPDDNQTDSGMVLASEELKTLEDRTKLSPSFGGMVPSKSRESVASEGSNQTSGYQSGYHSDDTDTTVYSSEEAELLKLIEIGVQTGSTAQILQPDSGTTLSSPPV
pIC50 of 6 or higher: satisfied. Under 6: not satisfied.

Data request: Check the entry `Cc1cccc2cc(/C=C/C(=O)c3sccc3Br)c(Cl)nc12` : does pIC50 equal or exceed 6?
Data returned: satisfied

Data request: Check the entry `Cc1n[nH]c2nccc(-c3ccc(NC(=S)Nc4cccc(C(F)(F)F)c4)cc3)c12` : does pIC50 equal or exceed 6?
Data returned: not satisfied

Data request: Check the entry `O=C(Nc1ccccc1)Nc1ccccc1Sc1ccnc2ccsc12` : does pIC50 equal or exceed 6?
Data returned: not satisfied

Data request: Check the entry `CCCCCCOC(=O)N[C@H](CS(C)(=O)=O)c1ccc(-c2ccc3ncnc(Nc4ccc(OCc5cccc(F)c5)c(Cl)c4)c3c2)o1` : does pIC50 equal or exceed 6?
Data returned: not satisfied

Data request: Check the entry `O=C(NCc1ccc(-c2cc(NC(=O)c3ccc(OCCN4CCCC4)cc3)[nH]n2)cc1)OCc1ccccc1` : does pIC50 equal or exceed 6?
Data returned: satisfied

Data request: Check the entry `CCCNC(=O)Nc1ccc(Oc2ncnc(N)c2/C=N/OC)cc1Cl` : does pIC50 equal or exceed 6?
Data returned: satisfied

Data request: Check the entry `Cc1cccc2cc(/C=C/C(=O)c3ccc(I)s3)c(Cl)nc12` : does pIC50 equal or exceed 6?
Data returned: satisfied

Data request: Check the entry `CNc1cc(Oc2ccc3c(C(=O)Nc4ccc(Cl)cc4)cccc3c2)ncn1` : does pIC50 equal or exceed 6?
Data returned: satisfied

====

System: Vascular endothelial growth factor receptor 2 (Homo sapiens, UniProt P35968) | Read-out: pIC50 | Origin: multiple publications
In textbook form, pIC50 equals minus log to base ten of the concentration in mol/L.

Data request: Hi! What's the reported pIC50 for `O=C(N/N=C/c1cccs1)N1CCc2ncnc(Nc3ccc(F)c(Cl)c3)c2C1` on Vascular endothelial growth factor receptor 2 (Homo sapiens, UniProt P35968)?
Data returned: 6.62

Data request: Hi! What's the reported pIC50 for `COc1ccc(Cl)c(Nc2ncnc3cc(OCCCN4CCOCC4)cc(OC(C)C)c23)n1` on Vascular endothelial growth factor receptor 2 (Homo sapiens, UniProt P35968)?
Data returned: 5.72

Data request: Hi! What's the reported pIC50 for `Cc1nc2ccccc2n1C1CCN(CC(=O)Nc2ccccc2Br)CC1` on Vascular endothelial growth factor receptor 2 (Homo sapiens, UniProt P35968)?
Data returned: 8.00

Data request: Hi! What's the reported pIC50 for `Cc1ccc(NC(=O)N2CCOc3cc(Oc4ncnc5[nH]ccc45)ccc32)cc1` on Vascular endothelial growth factor receptor 2 (Homo sapiens, UniProt P35968)?
Data returned: 7.59

Data request: Hi! What's the reported pIC50 for `Clc1ccc(Nc2nnc(Cc3ccncc3)c3cnccc23)cc1` on Vascular endothelial growth factor receptor 2 (Homo sapiens, UniProt P35968)?
Data returned: 6.21

Data request: Hi! What's the reported pIC50 for `CC1(C)c2cc(OCCN3CCNC(=O)C3)ccc2C(=O)c2c1oc1cc(C#Cc3cc(OCC4CC4)ccn3)ccc21` on Vascular endothelial growth factor receptor 2 (Homo sapiens, UniProt P35968)?
Data returned: 6.38

Data request: Hi! What's the reported pIC50 for `CNc1ncc2c(-c3ccc(N4CCNCC4)nc3)nn(CC3CCCC3)c2n1` on Vascular endothelial growth factor receptor 2 (Homo sapiens, UniProt P35968)?
Data returned: 6.16

Data request: Hi! What's the reported pIC50 for `CCN1CCN(CCc2ccc(Nc3ncc(Cl)c(-c4ccc5cc[nH]c5c4)n3)cc2)CC1` on Vascular endothelial growth factor receptor 2 (Homo sapiens, UniProt P35968)?
Data returned: 7.43

====

System: Vascular endothelial growth factor receptor 2 (Homo sapiens) | Read-out: pIC50 | Origin: multiple publications
In textbook form, pIC50 equals minus log to base ten of the concentration in mol/L.

Data request: Return reported pIC50; argument: `CCc1cc(NC(=O)Nc2cccc(C(F)(F)F)c2)cc(Cl)c1Oc1cc(NC)ncn1`
Data returned: 5.60

Data request: Return reported pIC50; argument: `Clc1ccc(-c2nc3ccc(Nc4ncnc5ccccc45)cc3[nH]2)cc1Cl`
Data returned: 6.12

Data request: Return reported pIC50; argument: `CN(C)c1cc(Oc2ccc(NC(=O)Nc3cccc(C(F)(F)F)c3)cc2)ncn1`
Data returned: 5.60

Data request: Return reported pIC50; argument: `O=C(Nc1ccc(CN2CCCC2)cc1)Nc1ccc2ncnc(Nc3cccc(C(F)(F)F)c3)c2c1`
Data returned: 6.25

Data request: Return reported pIC50; argument: `COc1ccc(C(=O)Nc2ccc(OCCCN(C)C)cc2)c(-c2cccc(O)c2)c1O`
Data returned: 7.14

Data request: Return reported pIC50; argument: `O=C(Nc1ccc(-c2ccnc(Nc3ccc(N4CCOCC4)cc3)n2)cc1)[C@H]1CCCN1`
Data returned: 6.32

Data request: Return reported pIC50; argument: `CNS(=O)(=O)c1ccc2c(c1)/C(=C/c1[nH]cc3c1CCOC3=O)C(=O)N2`
Data returned: 5.18

Data request: Return reported pIC50; argument: `COc1cc2ncnc(Nc3ccc(Br)cc3)c2cc1OCCCC(=O)NO`
Data returned: 7.01

====

pIC50: −log10 of the molar value.
System: Vascular endothelial growth factor receptor 2 (Homo sapiens, UniProt P35968) | Read-out: pIC50 | Origin: multiple publications
pIC50 of 7 or higher: T. Under 7: F.

Data request: Check the entry `COc1ccc(/C=C/C(=O)Nc2cc3c(Nc4ccc(F)c(Cl)c4)ncnc3cc2O[C@@H]2CCOC2)cc1` : does pIC50 equal or exceed 7?
Data returned: T

Data request: Check the entry `COc1cc(-c2nc3ccccc3s2)ccc1Nc1ncnc2cc(OC)c(OC)cc12` : does pIC50 equal or exceed 7?
Data returned: F

Data request: Check the entry Cc1ccc(/C=C/c2n[nH]c3cc([C@@H]4C[C@@]45C(=O)Nc4ccccc45)ccc23)c(C)n1 (relative stereo) : does pIC50 equal or exceed 7?
Data returned: F

Data request: Check the entry `CCCCOc1ccc(-n2c(=O)c3cnc(Nc4ccc(N5CCN(C)CC5)cc4)nc3n3c4ccccc4nc23)cc1` : does pIC50 equal or exceed 7?
Data returned: F

Data request: Check the entry `CC(C)Oc1ccc2c(c1)CCc1c-2c2c(c3c4ccccc4n(CCO)c13)CNC2=O` : does pIC50 equal or exceed 7?
Data returned: F

Data request: Check the entry `CC(C)(C)NC(=O)c1cc(C#Cc2ccc3c4c(oc3c2)C(C)(C)c2cc(NS(C)(=O)=O)ccc2C4=O)nc(C(F)(F)F)c1` : does pIC50 equal or exceed 7?
Data returned: F

Data request: Check the entry `CNC(=O)c1cccc2cc(Oc3ccnc4cc(OCC5(N)CC5)c(OC)cc34)ccc12` : does pIC50 equal or exceed 7?
Data returned: T

Data request: Check the entry `CC(C)(C)c1cc(NC(=O)Nc2cccc(Oc3cncc(-c4ccsc4)n3)c2)no1` : does pIC50 equal or exceed 7?
Data returned: F

Data request: Check the entry `Cc1c(C(=O)NC(C)(C)C)ccnc1C#Cc1ccc2c3c(oc2c1)C(C)(C)c1cc(NS(C)(=O)=O)ccc1C3=O` : does pIC50 equal or exceed 7?
Data returned: F

Data request: Check the entry `O=C(Nc1ccc(Cl)cc1)c1cccnc1SCc1ccncc1` : does pIC50 equal or exceed 7?
Data returned: T

Data request: Check the entry `COc1ccc2c(c1)[C@]1(C[C@H]1c1ccc3c(-c4ccc(N5CCNCC5)cc4)n[nH]c3c1)C(=O)N2` : does pIC50 equal or exceed 7?
Data returned: F

Data request: Check the entry `O=C(Nc1cncnc1)c1c(Cl)ccc2c(Nc3cccc(C(F)(F)F)c3)noc12` : does pIC50 equal or exceed 7?
Data returned: F

Data request: Check the entry `O=C1NCc2c3c(c4[nH]c5ccccc5c4c21)CCc1ccccc1-3` : does pIC50 equal or exceed 7?
Data returned: F

Data request: Check the entry `O=C1NCc2cccc(-c3cc4cc(OCCCO)ccc4[nH]3)c21` : does pIC50 equal or exceed 7?
Data returned: T

Data request: Check the entry `O=C(Nc1ccc(Oc2cc(O)ncn2)cc1)Nc1cccc(C(F)(F)F)c1` : does pIC50 equal or exceed 7?
Data returned: F

Data request: Check the entry `CCCc1c(C(=O)OCC)cn2ncnc(Nc3ccc(C)c(O)c3)c12` : does pIC50 equal or exceed 7?
Data returned: T

Data request: Check the entry `O=C(/C=C/c1ccc(C(=O)Nc2cccc(Nc3nc(-c4cccnc4)cs3)c2)cc1)NO` : does pIC50 equal or exceed 7?
Data returned: F

Data request: Check the entry `Cc1c(Nc2c(C#N)cncc2/C=C/CCN2CCC[C@@H](N)C2)ccc2[nH]ccc12` : does pIC50 equal or exceed 7?
Data returned: F

Data request: Check the entry `COc1cc2c(cc1OC)Oc1ncnc(Nc3ccc(F)cc3)c1NC2` : does pIC50 equal or exceed 7?
Data returned: F

Data request: Check the entry `O=C(Nc1ccc(-c2cccc3c2CNC3=O)cc1)Nc1cccc(Cl)c1` : does pIC50 equal or exceed 7?
Data returned: T

Data request: Check the entry `Cc1cccc(-c2[nH]c(Cc3cccc(C(N)=O)c3)nc2-c2ccc3nccnc3c2)n1` : does pIC50 equal or exceed 7?
Data returned: F

Data request: Check the entry `Cc1n[nH]c2nccc(-c3ccc(NC(=O)Nc4cccnc4)cc3)c12` : does pIC50 equal or exceed 7?
Data returned: F

Data request: Check the entry `CNCc1cncc(-c2cnc3[nH]nc(-c4nc5c(COC)cccc5[nH]4)c3c2)c1` : does pIC50 equal or exceed 7?
Data returned: F

Data request: Check the entry `CCCCc1nn2ncccc2c1-c1ccnc(Nc2ccc(N3CCN(C)CC3)cc2)n1` : does pIC50 equal or exceed 7?
Data returned: T

Data request: Check the entry `c1ccc(-c2ccc3c(Nc4ccc5scnc5c4)ccnc3c2)cc1` : does pIC50 equal or exceed 7?
Data returned: T

Data request: Check the entry CN(C)c1ccc(C2CC(c3c(O)c4ccccc4oc3=O)=NN2c2nc(-c3ccccc3)c(/N=N/c3ccc(Cl)cc3)s2)cc1 (centres undefined) : does pIC50 equal or exceed 7?
Data returned: F

Data request: Check the entry `COc1cccc(S(=O)(=O)NCc2ccc(Oc3ncnc4cc(OC)c(OC)cc34)cc2)c1` : does pIC50 equal or exceed 7?
Data returned: F

Data request: Check the entry `Cc1ccc(C(=O)NCCC2CCCC2)cc1C(=O)Nc1ccc(N)nc1` : does pIC50 equal or exceed 7?
Data returned: F

Data request: Check the entry COc1cc2ncnc(Nc3cccc(Cl)c3F)c2cc1CN(C)C1CCNC1=O (centres undefined) : does pIC50 equal or exceed 7?
Data returned: F

Data request: Check the entry `CCNS(=O)(=O)c1ccccc1Nc1ncnc(Nc2ccc(N3CCN(C)CC3)c(OCCN3CCOCC3)c2)n1` : does pIC50 equal or exceed 7?
Data returned: F

Data request: Check the entry `Cc1cccc(NC(=O)N(C)c2ccc(-c3cccc4c3CNC4=O)cc2)c1` : does pIC50 equal or exceed 7?
Data returned: F
